Kindly state cytotoxicity at 70.5 h for each of the entries shown.
# Procedure summary: Human HepG2 cell viability assay in 384 well format
# Type: toxicity, cell-based
# Set-up: dose 125 nL, time 70.5 hour; concentration not given beside the values
# Condition label: HepG2 cells, read-out: Inhibition
Give bare numbers, in %.

These recorded examples may help you get a feel for the data.
CSc1ccsc1C(=O)N1CCN(CC(C)(C)O)CC1 | -0.902
CCc1nc(C2CCCN(C(=O)c3ccc4[nH]nnc4c3)C2)no1 (configuration not stated) | -11
CCc1ocnc1C(=O)N1CCCC1c1noc(C2CC2)n1 (configuration not stated) | -9.72
O=C(c1ccoc1)N1CC[C@@H]2O[C@@H](COCc3ccncc3)CC[C@@H]21 | 10.2

I would be grateful if you could provide cytotoxicity at 70.5 h for each of the following entries.
1. NC(C(=O)N1CCSc2ccccc2C1)c1ccccc1 (configuration not stated)
2. CC(=O)Nc1nc2c(s1)C1(CCCC1)Nc1ccccc1S2
3. CNc1cc(CNC(=O)c2cccnc2)nc(-c2ccncc2)n1
4. CNC(=O)CN1CCC2(CCCN(CC3CCOC3)C2)CC1 (configuration not stated)
5. CSCC(C)(O)CNC(=O)c1ccc(Br)cc1C (configuration not stated)
6. CC(=O)NC1(C(=O)N2CCCN(c3cccnn3)CC2)CCCCC1

Key:
2.56
-3.55
-1.87
-6.27
-9.56
-5.29

I would be grateful if you could provide cytotoxicity at 70.5 h for each of the following entries.
1. CC(CNC(=O)N(C)Cc1ccco1)N1CCc2sccc2C1 (configuration not stated)
2. COc1ccc(-n2ncc(C(=O)NCC3COC(C)(C)O3)c2N)cc1 (configuration not stated)

Key:
4.72
-5.98

* * *

# Procedure summary: Human HepG2 cell viability assay in 384 well format
# Format: toxicity, cell-based
# Design: dose 125 nL, time 70.5 hour; concentration not given beside the values
# Condition label: HepG2 cells, read-out: Inhibition
Kindly state cytotoxicity at 70.5 h for each of the entries shown.
Give bare numbers, in %.

These recorded examples may help you get a feel for the data.
NS(=O)(=O)CCN(CCc1cccc(F)c1)C1CCCC1 | -0.787
Cc1cc(C(=O)N2CCCC3(C=Cc4ccccc4O3)CC2)cc(=O)[nH]1 (stereo not given) | -7.57
COCC1c2c(cnn2C)CCN1Cc1ccc(C)cc1 (stereo not given) | 42.3
Cc1ccc(C2COCCN2C(=O)c2ccsc2)o1 (stereo not given) | -8.5
CC(C)c1nsc(N2CCc3sccc3C2)n1 | -11.5

I would be grateful if you could provide cytotoxicity at 70.5 h for each of the following entries.
1. Cn1cc(NC(=O)C2CC(c3ccccc3)C2)ccc1=O (stereo not given)
2. CC(C)(C)S(=O)(=O)CCNC(=O)c1ccc2cc[nH]c2c1
3. Cc1cccc(CN2CC[C@@H]3[C@@H]2CCN3C(=O)c2cc(C)oc2C)n1

Key:
-15.7
-0.00861
13.1

I would be grateful if you could provide cytotoxicity at 70.5 h for each of the following entries.
1. CN1CCN(C)C2(CCN(C(=O)CC(F)(F)F)CC2)C1=O
2. COc1cccc(CN2CCCCCC2c2cccs2)c1O (stereo not given)

Key:
[0.213, -6.94]

* * *

# Procedure summary: Human HepG2 cell viability assay in 384 well format
# Assay type: toxicity, cell-based
# Parameters: dose 125 nL, time 70.5 hour; concentration not given beside the values
# Condition label: HepG2 cells, read-out: Inhibition
Outcome measure: cytotoxicity at 70.5 h (%)
Give bare numbers, in %.

I would be grateful if you could provide cytotoxicity at 70.5 h for each of the following entries.
1. O=C(Nc1ccc(N2CCCCC2)cn1)C1CCCN1C(=O)C1CC1 (stereo not given)
2. CCc1c(C)noc1-c1cnc(NC2CC2)nc1-c1cnc(C)cn1
3. Cc1cc(N2CCOC(C(F)(F)F)C2)nc(-c2ccccc2O)n1 (stereo not given)
4. CC(=O)N1N=C(c2ccccc2)OC1C(=O)NCCc1ccc(C)cc1 (stereo not given)
5. CCOCC1CN(S(C)(=O)=O)Cc2cnn(C)c21 (stereo not given)

Key:
[-4.38, -7.43, -6.3, 0.438, -11.1]
